# target_under_test: hmGluR1 receptor (Homo sapiens)
# Construct: expressed in transfected cells; host or cells: CHO
# Sequence (Q13255 19-1194): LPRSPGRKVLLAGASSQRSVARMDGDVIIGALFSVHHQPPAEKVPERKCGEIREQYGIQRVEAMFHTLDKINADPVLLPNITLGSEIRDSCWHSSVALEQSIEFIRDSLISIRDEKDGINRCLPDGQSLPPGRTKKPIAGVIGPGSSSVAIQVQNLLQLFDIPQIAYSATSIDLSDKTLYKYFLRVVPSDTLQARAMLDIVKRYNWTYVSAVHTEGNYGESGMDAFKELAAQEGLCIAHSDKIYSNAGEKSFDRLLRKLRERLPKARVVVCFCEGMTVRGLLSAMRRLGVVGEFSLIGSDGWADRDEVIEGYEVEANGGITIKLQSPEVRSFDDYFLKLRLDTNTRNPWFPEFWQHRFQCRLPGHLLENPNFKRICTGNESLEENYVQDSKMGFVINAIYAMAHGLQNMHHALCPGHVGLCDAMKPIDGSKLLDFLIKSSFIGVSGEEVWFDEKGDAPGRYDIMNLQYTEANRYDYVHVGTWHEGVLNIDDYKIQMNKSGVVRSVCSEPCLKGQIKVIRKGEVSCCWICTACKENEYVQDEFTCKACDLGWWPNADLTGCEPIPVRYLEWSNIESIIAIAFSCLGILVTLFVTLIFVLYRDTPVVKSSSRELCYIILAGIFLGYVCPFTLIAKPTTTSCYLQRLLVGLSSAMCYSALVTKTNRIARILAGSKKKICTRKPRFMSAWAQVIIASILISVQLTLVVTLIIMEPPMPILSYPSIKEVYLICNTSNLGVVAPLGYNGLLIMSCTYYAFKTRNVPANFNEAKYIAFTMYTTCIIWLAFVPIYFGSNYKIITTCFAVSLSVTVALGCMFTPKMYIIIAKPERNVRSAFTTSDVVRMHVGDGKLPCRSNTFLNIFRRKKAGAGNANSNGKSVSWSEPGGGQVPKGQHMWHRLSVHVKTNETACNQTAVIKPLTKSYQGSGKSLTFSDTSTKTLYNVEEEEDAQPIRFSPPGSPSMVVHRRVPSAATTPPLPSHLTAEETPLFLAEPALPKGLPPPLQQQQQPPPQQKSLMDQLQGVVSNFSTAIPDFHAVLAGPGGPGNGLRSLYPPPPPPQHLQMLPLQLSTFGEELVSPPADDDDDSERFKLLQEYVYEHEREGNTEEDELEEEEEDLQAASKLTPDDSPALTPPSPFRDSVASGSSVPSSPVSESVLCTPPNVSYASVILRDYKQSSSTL
# assay_method_text: mGluR1 IC50 determination, FLIPR intracellular calcium mobilization against Quisqualate
# Assay type: cell-based
# run_conditions: CHO cell line stably expressing hmGluR1; against Quisqualate 1 μM (EC80); compounds added 10 minutes before; read-out: mGluR1 IC50
measured_property: IC50 (nM)

Illustrative cases are given below, each with its answer.
COc1ccnc2sc3c(=O)n(-c4ccc(Cl)cc4)ccc3c12 [16B] | 3.4
COc1ccnc2sc3c(=O)n(-c4ccc(Br)cc4)ccc3c12 [16E] | 4.8

P: COc1ccnc2sc3c(=O)n(-c4ccc(C)cc4)ccc3c12 [16C]
Q: COc1ccc(-n2ccc3c(sc4nccc(NC5CC5)c43)c2=O)cc1F [19AV]
Request: // which entry reports the smaller IC50, P or Q ? Refer to your chosen entry by its label in the reply.
Result: P
(P: 3.9 nM, Q: 9.8 nM)
